Source of measurements: the supplement of paper PMC4862054

- System: BT-474
- test_description: normalised viability (% of control), CellTiter-Blue; higher = more viable cells (about 100 = DMSO control)
- measurement_parameters: 100 nM; incubation time: 72 h
assay_readout: normalised viability (%)
Reply numerically in %, unit not repeated.

Consider the reported normalised viability for these compounds:
COC(=O)c1ccc2c(c1)NC(=O)/C2=C(\Nc1ccc(N(C)C(=O)CN2CCN(C)CC2)cc1)c1ccccc1 = 130
NC(=O)c1ccc(I)c([N+](=O)[O-])c1 = 94.6
CNC(=O)c1cc(Oc2ccc(NC(=O)Nc3ccc(Cl)c(C(F)(F)F)c3)c(F)c2)ccn1 = 98.3

Give measured normalised viability for CC(C)C[C@@H](C(=O)N[C@H](C(=O)OC1CCCC1)c1ccccc1)[C@H](O)C(=O)NO (BT-474).
110

Give measured normalised viability for Cc1ccc(NC(=O)c2ccc(CN3CCN(C)CC3)cc2)cc1Nc1nc(-c2cccnc2)cs1 (BT-474).
115

----------
- System: DU-4475
- test_description: normalised viability (% of control), CellTiter-Blue; higher = more viable cells (about 100 = DMSO control)
- measurement_parameters: incubation time: 72 h
Under this convention, rule met denotes normalised viability strictly below 90% and rule not met denotes normalised viability at or above 90%.

Answered examples (3):
O=C(Nc1ccncc1)C(=O)c1cn(Cc2ccc(Cl)cc2)c2ccccc12 [Indibulin] (3000 nM) = rule met
COC(=O)c1ccc2c(c1)NC(=O)/C2=C(\Nc1ccc(N(C)C(=O)CN2CCN(C)CC2)cc1)c1ccccc1 [BIBF 1120] (3000 nM) = rule not met
Nc1cc(C(F)(F)F)c(-c2cc(N3CCOCC3)nc(N3CCOCC3)n2)cn1 [BKM-120] (3000 nM) = rule met

Determine if N#Cc1ccc(COC[C@H]2O[C@@H](n3c(NCc4ccc(Cl)c(Cl)c4)nc4c(N)ncnc43)[C@H](O)[C@@H]2O)cc1 (3000 nM) shows normalised viability strictly lower than 90%.
rule met

----------
A collection of compounds and their measured normalised viability
- System: MFM-223
- test_description: normalised viability (% of control), CellTiter-Blue; higher = more viable cells (about 100 = DMSO control)
- measurement_parameters: 100 nM; incubation time: 72 h
Reply numerically in %, unit not repeated.

Consider the reported normalised viability for these compounds:
C=C1C[C@@H]2[C@H](CC[C@]3(C)C(=O)CC[C@@H]23)[C@@]2(C)C=CC(=O)C=C12 [Exemestane] = 93
COc1cc(OC2CCN(C)CC2)ccc1Nc1ncc2c(n1)n(C1CCCC1)c(=O)n2C [AZ 3146] = 105
COC(=O)c1ccc2c(c1)NC(=O)/C2=C(\Nc1ccc(N(C)C(=O)CN2CCN(C)CC2)cc1)c1ccccc1 [BIBF 1120] = 79.1
NC(=O)c1ccc(I)c([N+](=O)[O-])c1 [Iniparib] = 92.4

# input for lookup
Report normalised viability, nothing else, for this compound: Cc1ccc(NC(=O)c2ccc(CN3CCN(C)CC3)cc2)cc1Nc1nc(-c2cccnc2)cs1 [Masitinib]
101

----------
- Tested on: HDQ-P1
- test_description: normalised viability (% of control), CellTiter-Blue; higher = more viable cells (about 100 = DMSO control)
- measurement_parameters: 100 nM; incubation time: 72 h
assay_readout: normalised viability
Record the result as a number with its unit.

Consider the reported normalised viability for these compounds:
Nc1cc(C(F)(F)F)c(-c2cc(N3CCOCC3)nc(N3CCOCC3)n2)cn1 = 97.7%
CNC(=O)c1cc(Oc2ccc(NC(=O)Nc3ccc(Cl)c(C(F)(F)F)c3)c(F)c2)ccn1 = 100%
N#Cc1ccc(COC[C@H]2O[C@@H](n3c(NCc4ccc(Cl)c(Cl)c4)nc4c(N)ncnc43)[C@H](O)[C@@H]2O)cc1 = 105%

# input for lookup
Report normalised viability, nothing else, for this compound: CN(C)CCOc1ccc(/C(=C(/CCCl)c2ccccc2)c2ccccc2)cc1
113%
